Target: recombinant soluble tissue factor and recombinant human factor VIIa (TF-VIIa) (Homo sapiens, UniProt P08709)
Construct: conversion of coagulation factor VII to VIIa by Xa; purchased American Diagnostica, Greenwich Conn; host or cells: VIIa purchased; soluble TF made in house in E. coli
Sequence (P08709 61-212 limits assumed): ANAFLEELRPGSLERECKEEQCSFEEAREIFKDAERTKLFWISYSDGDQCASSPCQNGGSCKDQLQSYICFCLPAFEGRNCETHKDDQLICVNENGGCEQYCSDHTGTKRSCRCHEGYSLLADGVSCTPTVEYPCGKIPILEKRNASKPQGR
Sequence (P08709 213-466 limits assumed): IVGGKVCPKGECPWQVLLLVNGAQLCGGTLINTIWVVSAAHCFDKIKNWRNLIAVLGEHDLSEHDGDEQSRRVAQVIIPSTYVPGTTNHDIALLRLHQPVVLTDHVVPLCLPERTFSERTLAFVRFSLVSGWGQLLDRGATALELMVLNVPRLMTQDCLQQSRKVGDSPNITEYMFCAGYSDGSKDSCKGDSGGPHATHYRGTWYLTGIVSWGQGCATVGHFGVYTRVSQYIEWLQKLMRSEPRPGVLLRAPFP
Sequence (P13726 33-251 partner limits assumed): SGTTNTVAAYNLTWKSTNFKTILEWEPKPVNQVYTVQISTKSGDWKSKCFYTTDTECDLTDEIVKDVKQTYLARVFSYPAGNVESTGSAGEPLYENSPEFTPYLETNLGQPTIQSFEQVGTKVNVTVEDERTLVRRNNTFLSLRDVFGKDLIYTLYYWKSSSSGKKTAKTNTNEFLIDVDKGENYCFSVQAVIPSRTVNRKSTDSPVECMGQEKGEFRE
Experiment: TF-VIIa Assay
Assay type: biochemical
Conditions: read-out: IC50 TF-VIIa
endpoint.label: log10(IC50) (log10 of the value in nM)

>  <compound.string>
CC(C)Nc1nc(Cl)c(-c2cc(N)cc(C(=O)NCC(c3ccccc3)c3ccccc3)c2)n(CC(=O)NCc2ccc(C(=N)N)cc2)c1=O

>  <log10(IC50)>
1.72

$$$$
>  <compound.string>
CSc1ccc(N)cc1-c1c(Cl)nc(NC(C)C)c(=O)n1CC(=O)NCc1ccc(C(=N)N)cc1

>  <log10(IC50)>
2.08

$$$$
>  <compound.string>
C[C@H](Nc1nc(Cl)c(-c2cccc(N)c2)n(CC(=O)NCc2ccc(C(=N)N)cc2)c1=O)C(=O)O

>  <log10(IC50)>
3.81

$$$$
>  <compound.string>
CC(C)NC(=N)c1ccc(CNC(=O)Cn2c(-c3cccc(N)c3)c(Cl)nc(NC3CCC3)c2=O)cc1

>  <log10(IC50)>
4.95

$$$$
>  <compound.string>
CC(C)Nc1nc(Cl)c(-c2cc(N)cc(C(=O)NCc3cccc(F)c3)c2)n(CC(=O)NCc2ccc(C(=N)N)cc2)c1=O

>  <log10(IC50)>
1.04

$$$$
>  <compound.string>
CC(C)Nc1nc(Cl)c(-c2cc(N)cc(C(=O)NCCCc3ccccc3)c2)n(CC(=O)NCc2ccc(C(=N)N)cc2)c1=O

>  <log10(IC50)>
1.57

$$$$
>  <compound.string>
CC(C)Nc1nc(Cl)c(-c2cccc(N)c2)n(CC(=O)NNc2ccc(C(=N)N)cc2)c1=O

>  <log10(IC50)>
2.85

$$$$
>  <compound.string>
COC(=O)c1cccc(Sc2ccc(N)cc2-c2c(Cl)nc(NC(C)C)c(=O)n2CC(=O)NCc2ccc(C(=N)N)cc2)c1

>  <log10(IC50)>
2.43

$$$$
>  <compound.string>
CC(C)CNC(=O)c1cc(N)cc(-c2c(Cl)nc(NC(C)C)c(=O)n2CC(=O)NCc2ccc(C(=N)N)cc2)c1

>  <log10(IC50)>
0.87

$$$$
>  <compound.string>
COC(=O)c1cc(N)cc(-c2c(Cl)nc(NC3CCC3)c(=O)n2CC(=O)NCc2ccc(C(=N)N)cc2)c1

>  <log10(IC50)>
1.49

$$$$
>  <compound.string>
Nc1cccc(-c2c(Cl)nc(NC3CCC3)c(=O)n2CC(=O)NCc2ccc3c(N)nsc3c2)c1

>  <log10(IC50)>
4.43

$$$$
>  <compound.string>
CC(C)Nc1nc(Cl)c(-c2cc(N)cc(C(=O)NCc3ccccc3)c2)n(CC(=O)NCc2ccc(C(=N)N)cc2)c1=O

>  <log10(IC50)>
0.85

$$$$
>  <compound.string>
COCCNC(=N)c1ccc(CNC(=O)Cn2c(-c3cccc(N)c3)c(Cl)nc(NC3CCC3)c2=O)cc1

>  <log10(IC50)>
4.60

$$$$
>  <compound.string>
COC(=O)c1cc(N)cc(-c2cnc(NC3CCC3)c(=O)n2CC(=O)NCc2ccc(C(=N)N)cc2)c1

>  <log10(IC50)>
1.52

$$$$

###

Target: Human factor Xa (Homo sapiens, UniProt P00742)
Sequence (P00742 41-179 limits assumed): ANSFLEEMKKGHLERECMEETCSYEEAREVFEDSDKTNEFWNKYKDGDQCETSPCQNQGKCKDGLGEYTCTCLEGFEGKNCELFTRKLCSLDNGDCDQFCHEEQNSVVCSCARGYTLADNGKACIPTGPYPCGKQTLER
Sequence (P00742 235-488 limits assumed): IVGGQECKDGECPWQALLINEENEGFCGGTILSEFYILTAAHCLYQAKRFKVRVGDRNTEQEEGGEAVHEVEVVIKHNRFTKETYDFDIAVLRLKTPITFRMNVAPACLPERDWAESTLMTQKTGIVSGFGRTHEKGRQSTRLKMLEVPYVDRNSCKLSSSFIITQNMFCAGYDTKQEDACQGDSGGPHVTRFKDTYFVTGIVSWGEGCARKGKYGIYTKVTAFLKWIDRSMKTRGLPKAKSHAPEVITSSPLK
Experiment: Xa Assay
Assay type: biochemical
Parameters: purchased Enzyme Research Laboratories, South Bend Ind
Conditions: inhibitor at 100 µM
endpoint.label: % Inhibition Factor Xa (100 µM) (%)

>  <compound>
Cc1c(Cl)nc(NCCc2ccc(Cl)cc2)c(=O)n1CC(=O)NCCc1ccncc1

>  <target.or.system>
Human factor Xa (Homo sapiens, UniProt P00742)

>  <value.reported>
0

$$$$
>  <compound>
O=C(Cn1c(-c2ccc(Cl)cc2)c(Cl)nc(NCCc2ccccc2)c1=O)NCCc1ccncc1 [Example E-0026]

>  <target.or.system>
Human factor Xa (Homo sapiens, UniProt P00742)

>  <value.reported>
0

$$$$
>  <compound>
O=C(Cn1c(-c2ccc3c(c2)OCO3)c(Cl)nc(NCCc2ccccc2)c1=O)NCCc1ccncc1

>  <target.or.system>
Human factor Xa (Homo sapiens, UniProt P00742)

>  <value.reported>
0

$$$$
>  <compound>
O=C(Cn1c(-c2cccc(Cl)c2)c(Cl)nc(NCc2ccccc2)c1=O)NCCc1ccncc1 [Example E-0085]

>  <target.or.system>
Human factor Xa (Homo sapiens, UniProt P00742)

>  <value.reported>
0

$$$$
>  <compound>
O=C(Cn1c(Cc2ccccc2)c(Cl)nc(NCCN2CCOCC2)c1=O)NCCc1ccncc1

>  <target.or.system>
Human factor Xa (Homo sapiens, UniProt P00742)

>  <value.reported>
0

$$$$
>  <compound>
O=C(Cn1c(Cc2ccccc2)c(Cl)nc(NCCc2cccc(Cl)c2)c1=O)NCCc1ccncc1

>  <target.or.system>
Human factor Xa (Homo sapiens, UniProt P00742)

>  <value.reported>
0

$$$$
>  <compound>
O=C(Cn1c(-c2ccc(Cl)cc2)c(Cl)nc(NCCc2cccc(Cl)c2)c1=O)NCCc1ccncc1 [Example E-0019]

>  <target.or.system>
Human factor Xa (Homo sapiens, UniProt P00742)

>  <value.reported>
0

$$$$
>  <compound>
COc1ccc(-c2c(Cl)nc(NCCN3CCOCC3)c(=O)n2CC(=O)NCCc2ccncc2)cc1

>  <target.or.system>
Human factor Xa (Homo sapiens, UniProt P00742)

>  <value.reported>
1

$$$$
>  <compound>
O=C(Cn1c(-c2cccc(Cl)c2)c(Cl)nc(NCCc2ccc(Cl)cc2)c1=O)NCCc1ccncc1 [Example E-0082]

>  <target.or.system>
Human factor Xa (Homo sapiens, UniProt P00742)

>  <value.reported>
4

$$$$
>  <compound>
O=C(Cn1c(-c2cccc(Cl)c2)c(Cl)nc(NCCc2cccc(Cl)c2)c1=O)NCCc1cccnc1 [Example E-0092]

>  <target.or.system>
Human factor Xa (Homo sapiens, UniProt P00742)

>  <value.reported>
3

$$$$
>  <compound>
O=C(Cn1c(-c2ccccc2)c(Cl)nc(NCCc2cccnc2)c1=O)NCCc1ccncc1

>  <target.or.system>
Human factor Xa (Homo sapiens, UniProt P00742)

>  <value.reported>
0

$$$$
>  <compound>
O=C(Cn1c(-c2ccc(Cl)cc2)c(Cl)nc(NCCN2CCOCC2)c1=O)NCCc1ccncc1 [Example E-0023]

>  <target.or.system>
Human factor Xa (Homo sapiens, UniProt P00742)

>  <value.reported>
0

$$$$
>  <compound>
O=C(Cn1c(-c2ccc3c(c2)OCO3)c(Cl)nc(NCc2ccccc2)c1=O)NCCc1ccncc1

>  <target.or.system>
Human factor Xa (Homo sapiens, UniProt P00742)

>  <value.reported>
0

$$$$
>  <compound>
O=C(Cn1c(-c2ccc(Cl)cc2)c(Cl)nc(NCCc2ccccc2)c1=O)NCCc1ccncc1 [Example E-0018]

>  <target.or.system>
Human factor Xa (Homo sapiens, UniProt P00742)

>  <value.reported>
0

$$$$
>  <compound>
O=C(Cn1c(Cc2ccccc2)c(Cl)nc(NCCc2ccccc2)c1=O)NCCc1ccncc1

>  <target.or.system>
Human factor Xa (Homo sapiens, UniProt P00742)

>  <value.reported>
0

$$$$

###

Entries and their measured % Inhibition Factor Xa (30 µM) follow.
Target: Human factor Xa (Homo sapiens)
Test: Xa Assay
Format: biochemical
Set-up: purchased Enzyme Research Laboratories, South Bend Ind
Conditions: at 30 µM inhibitor

>  <compound>
N=C(N)c1ccc(CNC(=O)Cn2c(-c3ccccc3)c(Cl)nc(NCCc3ccncc3)c2=O)cc1 [1471-13]

>  <output.unit>
%

>  <% Inhibition Factor Xa (30 µM)>
0

$$$$
>  <compound>
CSCC(C(=O)NCc1ccc(C(=N)N)cc1)n1c(-c2ccccc2)c(Cl)nc(NCc2ccccc2)c1=O (stereo not shown) [Example 1517-04]

>  <output.unit>
%

>  <% Inhibition Factor Xa (30 µM)>
0

$$$$
>  <compound>
COc1ccc(-c2c(Cl)nc(NCCN3CCOCC3)c(=O)n2CC(=O)NCc2ccc(C(=N)N)cc2)cc1 [1471-36]

>  <output.unit>
%

>  <% Inhibition Factor Xa (30 µM)>
6

$$$$
>  <compound>
N=C(N)c1ccc(CNC(=O)Cn2c(-c3ccc4c(c3)OCO4)c(Cl)nc(NCCc3ccc(Cl)cc3)c2=O)cc1 [1471-42]

>  <output.unit>
%

>  <% Inhibition Factor Xa (30 µM)>
15

$$$$

###

Target: Human factor Xa (Homo sapiens)
Test: Xa Assay
Format: biochemical
Set-up: purchased Enzyme Research Laboratories, South Bend Ind
Settings: at 30 µM inhibitor
endpoint.label: % Inhibition Factor Xa (30 µM) (%)

>  <compound.string>
N=C(N)c1ccc(CNC(=O)Cn2c(-c3ccccc3)c(Cl)nc(NCc3ccccc3Cl)c2=O)cc1

>  <endpoint.label>
% Inhibition Factor Xa (30 µM)

>  <value.reported>
21

$$$$
>  <compound.string>
N=C(N)c1ccc(CNC(=O)Cn2c(-c3ccsc3)c(Cl)nc(NC3CCC3)c2=O)cc1

>  <endpoint.label>
% Inhibition Factor Xa (30 µM)

>  <value.reported>
0

$$$$
>  <compound.string>
N=C(N)c1ccc(CNC(=O)Cn2c(-c3ccc(-c4ccccc4)cc3)c(Cl)nc(NCc3ccncc3)c2=O)cc1

>  <endpoint.label>
% Inhibition Factor Xa (30 µM)

>  <value.reported>
16

$$$$
>  <compound.string>
CCc1c(Cl)nc(NCCc2ccncc2)c(=O)n1CC(=O)NCc1ccc(C(=N)N)cc1

>  <endpoint.label>
% Inhibition Factor Xa (30 µM)

>  <value.reported>
0

$$$$
